A collection of compounds and their measured Total impurities (%)
- Assay text: Stability test of salt form screening (25° C., R.T./75% RH, light; HPLC, XRPD)
- Type: physicochemical
- Assay conditions: Light, room temperature, 10 Days
Where a name gives a salt, the structure may show the parent alone.
Respond numerically; units are % and should not be typed.

Data point: Cc1c(S(C)(=O)=O)c(-c2cc(F)cc(N3CCN(c4ccc(NS(=O)(=O)c5ccc(N[C@H](CCN6CCC(C(=O)OCCCP(=O)(O)O)CC6)CSc6ccccc6)c(S(=O)(=O)C(F)(F)F)c5)cc4)CC3)c2)c(-c2ccc(Cl)cc2)n1C(C)C [Amorphous form XII of potassium salt] ; Total impurities (%) = 2.69

Cc1c(S(C)(=O)=O)c(-c2cc(F)cc(N3CCN(c4ccc(NS(=O)(=O)c5ccc(N[C@H](CCN6CCC(C(=O)OCCCP(=O)(O)O)CC6)CSc6ccccc6)c(S(=O)(=O)C(F)(F)F)c5)cc4)CC3)c2)c(-c2ccc(Cl)cc2)n1C(C)C [Amorphous form XIII of sodium salt] has a reported Total impurities (%) of 3.55

Looking up Cc1c(S(C)(=O)=O)c(-c2cc(F)cc(N3CCN(c4ccc(NS(=O)(=O)c5ccc(N[C@H](CCN6CCC(C(=O)OCCCP(=O)(O)O)CC6)CSc6ccccc6)c(S(=O)(=O)C(F)(F)F)c5)cc4)CC3)c2)c(-c2ccc(Cl)cc2)n1C(C)C [Amorphous form XV of maleate salt] , I see its Total impurities (%) listed as 1.94

Field Total impurities (%) (entry Cc1c(S(C)(=O)=O)c(-c2cc(F)cc(N3CCN(c4ccc(NS(=O)(=O)c5ccc(N[C@H](CCN6CCC(C(=O)OCCCP(=O)(O)O)CC6)CSc6ccccc6)c(S(=O)(=O)C(F)(F)F)c5)cc4)CC3)c2)c(-c2ccc(Cl)cc2)n1C(C)C [Amorphous form XVI of meglumine salt] ) reads 1.74

###

- Assay text: Stability test of salt form screening (25° C., R.T./75% RH, light; HPLC, XRPD)
- Type: physicochemical
- Assay conditions: 25° C., open, 5 Days
- Description: Take an appropriate amount of the compound into an 8 mL glass bottle, and then place it at room temperature (25° C., open), high humidity (room temperature/75% RH, open) and light (room temperature, white light: 6980 lux, UV 282 μW/cm2). Take samples for testing on the 5th, 10th, and 30th day (HPLC, XRPD).
Structures can show the parent of a compound that is named as a salt.
Entries and their measured Total impurities (%) follow.
Unit % implied. Number only.

# Total impurities (%) of Cc1c(S(C)(=O)=O)c(-c2cc(F)cc(N3CCN(c4ccc(NS(=O)(=O)c5ccc(N[C@H](CCN6CCC(C(=O)OCCCP(=O)(O)O)CC6)CSc6ccccc6)c(S(=O)(=O)C(F)(F)F)c5)cc4)CC3)c2)c(-c2ccc(Cl)cc2)n1C(C)C [Amorphous form XVI of meglumine salt] = 0.95

Given item Cc1c(S(C)(=O)=O)c(-c2cc(F)cc(N3CCN(c4ccc(NS(=O)(=O)c5ccc(N[C@H](CCN6CCC(C(=O)OCCCP(=O)(O)O)CC6)CSc6ccccc6)c(S(=O)(=O)C(F)(F)F)c5)cc4)CC3)c2)c(-c2ccc(Cl)cc2)n1C(C)C [Amorphous form XV of maleate salt] , the value recorded as its Total impurities (%) is 0.79

The compound listed as Cc1c(S(C)(=O)=O)c(-c2cc(F)cc(N3CCN(c4ccc(NS(=O)(=O)c5ccc(N[C@H](CCN6CCC(C(=O)OCCCP(=O)(O)O)CC6)CSc6ccccc6)c(S(=O)(=O)C(F)(F)F)c5)cc4)CC3)c2)c(-c2ccc(Cl)cc2)n1C(C)C [Amorphous form XII of potassium salt] has a reported Total impurities (%) of 1.63

Now examine the next entry.
Briefly, Total impurities (%) measured for Cc1c(S(C)(=O)=O)c(-c2cc(F)cc(N3CCN(c4ccc(NS(=O)(=O)c5ccc(N[C@H](CCN6CCC(C(=O)OCCCP(=O)(O)O)CC6)CSc6ccccc6)c(S(=O)(=O)C(F)(F)F)c5)cc4)CC3)c2)c(-c2ccc(Cl)cc2)n1C(C)C [Amorphous form XIII of sodium salt] : 1.89

###

- Assay text: Stability test of salt form screening (25° C., R.T./75% RH, light; HPLC, XRPD)
- Type: physicochemical
- Assay conditions: 25° C., open, 10 Days
Structures can show the parent of a compound that is named as a salt.
The molecules listed here are annotated with their Total impurities (%).
Respond numerically; units are % and should not be typed.

Would you please look over these solved cases?
Just so you know, measured Total impurities (%) for Cc1c(S(C)(=O)=O)c(-c2cc(F)cc(N3CCN(c4ccc(NS(=O)(=O)c5ccc(N[C@H](CCN6CCC(C(=O)OCCCP(=O)(O)O)CC6)CSc6ccccc6)c(S(=O)(=O)C(F)(F)F)c5)cc4)CC3)c2)c(-c2ccc(Cl)cc2)n1C(C)C [Amorphous form XIII of sodium salt] came out at 1.94

// Total impurities (%) value for Cc1c(S(C)(=O)=O)c(-c2cc(F)cc(N3CCN(c4ccc(NS(=O)(=O)c5ccc(N[C@H](CCN6CCC(C(=O)OCCCP(=O)(O)O)CC6)CSc6ccccc6)c(S(=O)(=O)C(F)(F)F)c5)cc4)CC3)c2)c(-c2ccc(Cl)cc2)n1C(C)C [Amorphous form XII of potassium salt] : 1.58

Kindly note the recorded Total impurities (%) for Cc1c(S(C)(=O)=O)c(-c2cc(F)cc(N3CCN(c4ccc(NS(=O)(=O)c5ccc(N[C@H](CCN6CCC(C(=O)OCCCP(=O)(O)O)CC6)CSc6ccccc6)c(S(=O)(=O)C(F)(F)F)c5)cc4)CC3)c2)c(-c2ccc(Cl)cc2)n1C(C)C [Amorphous form XV of maleate salt] , which is 0.89

Further cases:
Cc1c(S(C)(=O)=O)c(-c2cc(F)cc(N3CCN(c4ccc(NS(=O)(=O)c5ccc(N[C@H](CCN6CCC(C(=O)OCCCP(=O)(O)O)CC6)CSc6ccccc6)c(S(=O)(=O)C(F)(F)F)c5)cc4)CC3)c2)c(-c2ccc(Cl)cc2)n1C(C)C [Amorphous form XVI of meglumine salt] has a reported Total impurities (%) of 0.89

###

Examples of compounds with documented Total impurities (%) follow.
- Assay text: Stability test of salt form screening (25° C., R.T./75% RH, light; HPLC, XRPD)
- Type: physicochemical
- Assay conditions: R.T./75% RH, open, 5 Days
Counter-ions that a name gives are not always drawn.
The answer is to be given in %; state only the numeric part.

Illustrative cases are given below, each with its answer.
Total impurities (%) for Cc1c(S(C)(=O)=O)c(-c2cc(F)cc(N3CCN(c4ccc(NS(=O)(=O)c5ccc(N[C@H](CCN6CCC(C(=O)OCCCP(=O)(O)O)CC6)CSc6ccccc6)c(S(=O)(=O)C(F)(F)F)c5)cc4)CC3)c2)c(-c2ccc(Cl)cc2)n1C(C)C [Amorphous form XIII of sodium salt] is 2.45

Form field Total impurities (%), entry Cc1c(S(C)(=O)=O)c(-c2cc(F)cc(N3CCN(c4ccc(NS(=O)(=O)c5ccc(N[C@H](CCN6CCC(C(=O)OCCCP(=O)(O)O)CC6)CSc6ccccc6)c(S(=O)(=O)C(F)(F)F)c5)cc4)CC3)c2)c(-c2ccc(Cl)cc2)n1C(C)C [Amorphous form XII of potassium salt] : 2.25

compound Cc1c(S(C)(=O)=O)c(-c2cc(F)cc(N3CCN(c4ccc(NS(=O)(=O)c5ccc(N[C@H](CCN6CCC(C(=O)OCCCP(=O)(O)O)CC6)CSc6ccccc6)c(S(=O)(=O)C(F)(F)F)c5)cc4)CC3)c2)c(-c2ccc(Cl)cc2)n1C(C)C [Amorphous form XVI of meglumine salt] , Total impurities (%) observed: 1.36

# evaluate next
So for Cc1c(S(C)(=O)=O)c(-c2cc(F)cc(N3CCN(c4ccc(NS(=O)(=O)c5ccc(N[C@H](CCN6CCC(C(=O)OCCCP(=O)(O)O)CC6)CSc6ccccc6)c(S(=O)(=O)C(F)(F)F)c5)cc4)CC3)c2)c(-c2ccc(Cl)cc2)n1C(C)C [Amorphous form XV of maleate salt] , the logged Total impurities (%) turned out to be 1.59

###

- Assay text: Stability test of salt form screening (25° C., R.T./75% RH, light; HPLC, XRPD)
- Format: physicochemical
- Assay conditions: 25° C., open, 30 Days
Where a name gives a salt, the structure may show the parent alone.
The reader will find reported Total impurities (%) values listed item by item below.
Reply numerically in %, unit not repeated.

Item: Cc1c(S(C)(=O)=O)c(-c2cc(F)cc(N3CCN(c4ccc(NS(=O)(=O)c5ccc(N[C@H](CCN6CCC(C(=O)OCCCP(=O)(O)O)CC6)CSc6ccccc6)c(S(=O)(=O)C(F)(F)F)c5)cc4)CC3)c2)c(-c2ccc(Cl)cc2)n1C(C)C [Amorphous form XV of maleate salt] | Total impurities (%): 1.23

For reference, reported Total impurities (%) for Cc1c(S(C)(=O)=O)c(-c2cc(F)cc(N3CCN(c4ccc(NS(=O)(=O)c5ccc(N[C@H](CCN6CCC(C(=O)OCCCP(=O)(O)O)CC6)CSc6ccccc6)c(S(=O)(=O)C(F)(F)F)c5)cc4)CC3)c2)c(-c2ccc(Cl)cc2)n1C(C)C [Amorphous form XII of potassium salt] stands at 1.86

Just so you know, measured Total impurities (%) for Cc1c(S(C)(=O)=O)c(-c2cc(F)cc(N3CCN(c4ccc(NS(=O)(=O)c5ccc(N[C@H](CCN6CCC(C(=O)OCCCP(=O)(O)O)CC6)CSc6ccccc6)c(S(=O)(=O)C(F)(F)F)c5)cc4)CC3)c2)c(-c2ccc(Cl)cc2)n1C(C)C [Amorphous form XVI of meglumine salt] came out at 0.88

Measured Total impurities (%) of Cc1c(S(C)(=O)=O)c(-c2cc(F)cc(N3CCN(c4ccc(NS(=O)(=O)c5ccc(N[C@H](CCN6CCC(C(=O)OCCCP(=O)(O)O)CC6)CSc6ccccc6)c(S(=O)(=O)C(F)(F)F)c5)cc4)CC3)c2)c(-c2ccc(Cl)cc2)n1C(C)C [Amorphous form XIII of sodium salt] : 2.29
